# ASSAY OVERVIEW: Cytotoxicity in Vero 76 cells (CPE assay toxicity wells)
# CONDITION LABEL: African green monkey, CC50, Vero 76, microscopic observation
ASSAY ENDPOINT: CC50 at 5 days (µM)
Reply numerically in µM, unit not repeated.

What value of CC50 at 5 days has been reported for the following molecule? O=C(Nc1ccc(O)c(O)c1)c1cccc(O)c1O
52

* * *

ASSAY ENDPOINT: Kd

Requested read-out Kd, target or system SARS-CoV-2 nsp15 (Severe acute respiratory syndrome coronavirus 2), entry O=C(Nc1ccc(O)c(O)c1)c1cccc(O)c1O
~12 µM

* * *

Please provide measured pIC50 for the entries that follow.
# ASSAYED SYSTEM: SARS-CoV-2 nsp15 endoribonuclease (endoU) (Severe acute respiratory syndrome coronavirus 2, UniProt P0DTD1)
# ASSAY OVERVIEW: biochemical
# Assay type: biochemical
# CONDITION LABEL: 3° FRET Assay IC50
The read-out pIC50 is expressed as -log10 of concentration in moles per litre.

Any idea what pIC50 was measured for COc1cccc2c1C(=O)c1c(O)c3c(c(O)c1C2=O)C[C@@](O)(C(=O)CO)C[C@@H]3O[C@H]1C[C@H](N)[C@H](O)[C@H](C)O1 ?
5.03

I would be grateful if you could share the reported pIC50 for COC1=C(N)C(=O)c2nc(-c3nc(C(=O)O)c(C)c(-c4ccc(OC)c(OC)c4O)c3N)ccc2C1=O .
6.54

I am curious: what pIC50 value has been reported for CC1(C)CCC2=C(O1)c1ccccc1C(=O)C2=O ?
6.51

Quick check: pIC50 of CC(C)(O/N=C(\C(=O)N[C@@H]1C(=O)N2C(C(=O)[O-])=C(C[n+]3ccccc3)CS[C@H]12)c1csc(N)n1)C(=O)O ?
4.14

Entry under review: COc1cccc2c1C(=O)c1c(O)c3c(c(O)c1C2=O)C[C@@](O)(C(=O)CO)C[C@@H]3O[C@H]1C[C@H](N)[C@H](O[C@@H]2CCCCO2)[C@H](C)O1 . Reported pIC50?
5.22
